System: Escherichia coli
assay.name: In vitro antimicrobial activity against Escherichia coli GC 3226
Assay type: functional
Kindly state MIC for each of the entries shown.

Inquiry: What does the data say about its MIC? Entry: COc1ccc(Cn2c(=O)ccn([C@@H]3OC([C@H](O)[C@H](NCCCNC(=O)[C@H](N)CCCCNC(=O)OCc4ccccc4)C(=O)OC(C)(C)C)[C@@H](O[Si](C)(C)C(C)(C)C)[C@H]3O[Si](C)(C)C(C)(C)C)c2=O)cc1 (some centres undefined)
Reply text: 128 µg/mL

Inquiry: Field entry: CC(C)C(O)[C@@H](N)C(=O)NCCCN[C@H](C(=O)OC(C)(C)C)[C@@H](O)C1O[C@@H](n2ccc(=O)[nH]c2=O)[C@H](O[Si](C)(C)C(C)(C)C)[C@@H]1O[Si](C)(C)C(C)(C)C (some centres undefined)
Reply text: > 128 µg/mL

Inquiry: Can you check COc1ccc(Cn2c(=O)ccn([C@@H]3OC([C@H](O)[C@H](NCCCNC(=O)[C@H](N)C(O)C(C)C)C(=O)OC(C)(C)C)[C@@H](O[Si](C)(C)C(C)(C)C)[C@H]3O[Si](C)(C)C(C)(C)C)c2=O)cc1 (some centres undefined) next?
Reply text: > 128 µg/mL

Inquiry: Now consider COc1ccc(Cn2c(=O)ccn([C@@H]3OC([C@H](O)[C@H](NCCCNC(=O)[C@@H](C)N)C(=O)OC(C)(C)C)[C@@H](O[Si](C)(C)C(C)(C)C)[C@H]3O[Si](C)(C)C(C)(C)C)c2=O)cc1 (some centres undefined) .
Reply text: 128 µg/mL

----------
Test system: Pseudomonas aeruginosa
assay.name: In vitro antimicrobial activity against Pseudomonas aeruginosa GC 4532
Assay type: functional
property: MIC

Inquiry: For the compound shown here, CC(C)C(O)[C@@H](N)C(=O)NCCCN[C@H](C(=O)OC(C)(C)C)[C@@H](O)C1O[C@@H](n2ccc(=O)[nH]c2=O)[C@H](O[Si](C)(C)C(C)(C)C)[C@@H]1O[Si](C)(C)C(C)(C)C (some centres undefined) , give the reported MIC.
Reply text: 128 µg/mL

Inquiry: Same question, COc1ccc(Cn2c(=O)ccn([C@@H]3OC([C@H](O)[C@H](NCCCNC(=O)[C@H](N)C(O)C(C)C)C(=O)OC(C)(C)C)[C@@H](O[Si](C)(C)C(C)(C)C)[C@H]3O[Si](C)(C)C(C)(C)C)c2=O)cc1 (some centres undefined) this time
Reply text: > 128 µg/mL

Inquiry: Next compound up: COc1ccc(Cn2c(=O)ccn([C@@H]3OC([C@H](O)[C@H](NCCCNC(=O)[C@@H](C)N)C(=O)OC(C)(C)C)[C@@H](O[Si](C)(C)C(C)(C)C)[C@H]3O[Si](C)(C)C(C)(C)C)c2=O)cc1 (some centres undefined)
Reply text: 128 µg/mL

Inquiry: Try this compound next: COc1ccc(Cn2c(=O)ccn([C@@H]3OC([C@H](O)[C@H](NCCCNC(=O)[C@H](N)CCCCNC(=O)OCc4ccccc4)C(=O)OC(C)(C)C)[C@@H](O[Si](C)(C)C(C)(C)C)[C@H]3O[Si](C)(C)C(C)(C)C)c2=O)cc1 (some centres undefined)
Reply text: > 128 µg/mL

----------
Test system: Staphylococcus aureus
assay.name: In vitro antimicrobial activity against Staphylococcu aureus GC 4536
Assay type: functional
property: MIC
Numeric answer plus unit only.

Inquiry: Suppose we examine the compound COc1ccc(Cn2c(=O)ccn([C@@H]3OC([C@H](O)[C@H](NCCCNC(=O)[C@@H](C)N)C(=O)OC(C)(C)C)[C@@H](O[Si](C)(C)C(C)(C)C)[C@H]3O[Si](C)(C)C(C)(C)C)c2=O)cc1 (some centres undefined) ; what MIC value has been reported?
Reply text: 4 µg/mL

Inquiry: Continue with COc1ccc(Cn2c(=O)ccn([C@@H]3OC([C@H](O)[C@H](NCCCNC(=O)[C@H](N)C(O)C(C)C)C(=O)OC(C)(C)C)[C@@H](O[Si](C)(C)C(C)(C)C)[C@H]3O[Si](C)(C)C(C)(C)C)c2=O)cc1 (some centres undefined)
Reply text: 16 µg/mL

Inquiry: Same for CC(C)C(O)[C@@H](N)C(=O)NCCCN[C@H](C(=O)OC(C)(C)C)[C@@H](O)C1O[C@@H](n2ccc(=O)[nH]c2=O)[C@H](O[Si](C)(C)C(C)(C)C)[C@@H]1O[Si](C)(C)C(C)(C)C (some centres undefined)
Reply text: 1 µg/mL

Inquiry: Also COc1ccc(Cn2c(=O)ccn([C@@H]3OC([C@H](O)[C@H](NCCCNC(=O)[C@H](N)CCCCNC(=O)OCc4ccccc4)C(=O)OC(C)(C)C)[C@@H](O[Si](C)(C)C(C)(C)C)[C@H]3O[Si](C)(C)C(C)(C)C)c2=O)cc1 (some centres undefined) , if possible.
Reply text: 8 µg/mL
